Recorded values, source ChEMBL document CHEMBL1961873.

In this section we review reported inhibition values for a set of compounds.
- studyTarget: Calcium/calmodulin-dependent protein kinase type IV (Homo sapiens);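 further: each value is a mean inhibition of CAMK4, part of the GSK PKIS kinase screening panel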
- condition: at 0.1 µM
# unit: % | format: bare number

# count of solved cases: 5
INSERT INTO measurements (chemicalstructure, studytarget, testreadout, endpointunit, observedmeasurement) VALUES
  ('CCc1cccc(NC(=O)Nc2ccc(Oc3ccc4nc(NC(=O)OC)[nH]c4c3)cc2)c1', 'Calcium/calmodulin-dependent protein kinase type IV (Homo sapiens)', 'inhibition', '%', 0.16),
  ('CCN1CCC(CC(=O)Nc2n[nH]c3nc(-c4cccs4)c(Br)cc23)CC1', 'Calcium/calmodulin-dependent protein kinase type IV (Homo sapiens)', 'inhibition', '%', 0.29),
  ('N#Cc1c(NC(=O)c2cccc3ccccc23)sc2c1CCCC2', 'Calcium/calmodulin-dependent protein kinase type IV (Homo sapiens)', 'inhibition', '%', 2.05),
  ('CS(=O)(=O)Nc1ccc(N/C=C2\C(=O)Nc3ccccc32)cc1', 'Calcium/calmodulin-dependent protein kinase type IV (Homo sapiens)', 'inhibition', '%', -0.09),
  ('CNC(=O)c1cncc(/C=C/c2c(Cl)cccc2Cl)c1', 'Calcium/calmodulin-dependent protein kinase type IV (Homo sapiens)', 'inhibition', '%', 0.01);

Please look up its inhibition: COc1ccc(-c2coc3ncnc(N)c23)cc1
1.63

# iterate: Cc1ccc(C(=O)NC2CCCCC2)cc1-c1ccc(C(=O)NCC2CC2)cc1
3.22

# iterate: O=C1NC(=O)C(c2ccc(Cl)cc2)=C1Nc1ccc(Cl)c(C(=O)O)c1
0.68

# iterate: CS(=O)(=O)CCNCc1nc(-c2ccc3ncnc(Nc4ccc(F)c(Cl)c4)c3c2)cs1
-0.31

# iterate: COc1cc2c(cc1Nc1nc(N3CCc4ccccc43)c3cc[nH]c3n1)N(C(=O)CN(C)C)CC2
2.17

* * *

- studyTarget: Tyrosine-protein kinase Lyn (Homo sapiens) (UniProt P07948);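 further: mean inhibition of the LYN B splice variant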
- Sequence (P07948 2-512 limits assumed): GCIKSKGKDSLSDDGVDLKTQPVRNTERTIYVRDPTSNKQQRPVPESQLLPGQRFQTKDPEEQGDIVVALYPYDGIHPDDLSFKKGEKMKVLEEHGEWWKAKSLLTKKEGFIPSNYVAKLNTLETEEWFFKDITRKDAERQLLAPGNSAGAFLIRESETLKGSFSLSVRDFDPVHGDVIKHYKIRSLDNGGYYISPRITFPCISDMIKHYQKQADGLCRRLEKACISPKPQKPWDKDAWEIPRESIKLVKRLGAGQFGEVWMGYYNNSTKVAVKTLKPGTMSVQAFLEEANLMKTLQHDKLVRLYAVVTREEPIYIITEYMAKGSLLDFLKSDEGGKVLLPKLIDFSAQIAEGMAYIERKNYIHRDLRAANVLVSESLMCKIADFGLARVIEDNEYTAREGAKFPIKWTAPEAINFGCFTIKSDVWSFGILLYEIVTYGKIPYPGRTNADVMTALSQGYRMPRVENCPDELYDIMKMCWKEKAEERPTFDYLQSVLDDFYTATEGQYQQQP
- condition: at 0.1 µM
- Description: GSK_PKIS: LYN B (splice variant) mean inhibition at 0.1 uM [Nanosyn]
testReadout: inhibition (%)
# unit: % | format: bare number

# count of solved cases: 6
INSERT INTO assay_data (chemicalstructure, studytarget, endpointunit, observedmeasurement) VALUES
  ('CCn1c(-c2nonc2N)nc2cncc(C(=O)N3CCNCC3)c21', 'Tyrosine-protein kinase Lyn (Homo sapiens) (UniProt P07948)', '%', 1.79),
  ('O=C1Nc2ccc(C(=O)c3ccco3)cc2C1=Cc1cc(Cl)c(O)c(Cl)c1', 'Tyrosine-protein kinase Lyn (Homo sapiens) (UniProt P07948)', '%', 2.95),
  ('COc1cc2c(cc1Nc1nc(N3CCc4ccccc43)c3cc[nH]c3n1)N(C(=O)CN(C)C)CC2', 'Tyrosine-protein kinase Lyn (Homo sapiens) (UniProt P07948)', '%', 0.29),
  ('Cc1cccc(-c2n[nH]cc2-c2ccc3ncccc3n2)n1', 'Tyrosine-protein kinase Lyn (Homo sapiens) (UniProt P07948)', '%', 0.34),
  ('Fc1cccc(COc2ccc(Nc3ncnc4sc(-c5cccs5)cc34)cc2Cl)c1', 'Tyrosine-protein kinase Lyn (Homo sapiens) (UniProt P07948)', '%', 0.13),
  ('COC(=O)Nc1nc2cc(Oc3ccc(NC(=O)Nc4cccc(C(=O)O)c4)cc3)ccc2[nH]1', 'Tyrosine-protein kinase Lyn (Homo sapiens) (UniProt P07948)', '%', 0.48);

Please look up its inhibition: Nc1nc(-c2ccc3c(c2)C(=Cc2cc(Br)c(O)c(Br)c2)C(=O)N3)cs1
0.59

# iterate: O=C1NC(=O)C(c2ccc(Cl)cc2)=C1Nc1ccc(Cl)c(C(=O)O)c1
-2.02

# iterate: CCc1cccc(NC(=O)Nc2ccc(Oc3ccc4nc(NC(=O)OC)[nH]c4c3)cc2)c1
7.66

# iterate: NS(=O)(=O)c1ccc(N/N=C2\C(=O)Nc3ccc(C(=O)NCCc4c[nH]cn4)cc32)cc1
5.07
